Reference source: patent US5462861A

- Test system: α-D-glucosidase
- Test: α-D-glucosidase activity under gas
- Format: biochemical
- Test Conditions: FIG. 31
Property Name: effect on α-D-glucosidase

{"Molecule": "O=O [oxygen, reference compound]", "effect on α-D-glucosidase": "enhancement"}
{"Molecule": "N#N [N2, nitrogen, reference compound]", "effect on α-D-glucosidase": "enhancement"}
{"Molecule": "[Ne]", "effect on α-D-glucosidase": "enhancement"}
{"Molecule": "FS(F)(F)(F)(F)F [SF6, sulfur hexafluoride, reference compound]", "effect on α-D-glucosidase": "enhancement"}

Please examine the following record next.
Q) Please report the recorded effect on α-D-glucosidase for `[Ar]` .
A) enhancement
